SYSTEM TESTED: Mouse Tail Artery
ASSAY PROCEDURE: Antagonism of UK 14,304-induced vasoconstriction in isolated pressurised distal mouse tail artery
Assay type: cell-based
CONDITIONS: 28° C. (cold), n=4; read-out: KD
READOUT LABEL: Kd (nM)

INSERT INTO measurements (compound, system_tested, measured_value) VALUES
  ('CN1CCC2(CCN3CCc4c(oc5ccccc45)C3C2)N(C)C1=O (stereo not shown) [MK 912]', 'Mouse Tail Artery', 0.014);

---

SYSTEM TESTED: Mouse Tail Artery
ASSAY PROCEDURE: Antagonism of UK 14,304-induced vasoconstriction in isolated pressurised distal mouse tail artery
Format: cell-based
CONDITIONS: 37° C. (warm), versus UK 14,304, distal tail artery; read-out: KD Mouse Tail Artery 37° C.
pKd: −log10 of the molar value.
READOUT LABEL: pKd

INSERT INTO measurements (compound, system_tested, readout_label, measured_value) VALUES
  ('CC1c2ccccc2CN1CC1=NCCN1 (stereo not drawn) [BRL 44408]', 'Mouse Tail Artery', 'pKd', 7.70),
  ('COc1ccccc1N1CCN(CCN2C(=O)c3ccccc3C(C)(C)C2=O)CC1 [ARC 239]', 'Mouse Tail Artery', 'pKd', '< 7.30'),
  ('CN1CCC2(CCN3CCc4c(oc5ccccc45)C3C2)N(C)C1=O (stereo not drawn) [MK 912]', 'Mouse Tail Artery', 'pKd', '< 9.52');

These entries and their values trace back to patent US6444681B1.
